Experiment: in vitro
Settings: human, Caco-2, Caco-2 (cm/sec) Papp
Where a SMILES comes first, the peptide text is derived from it. Bridges are numbered along the chain shown (N, C = ends). [ ]: non-standard residue; d: D form. The star is where a group is joined. Ala(4-thiazolyl) = N[C@@H](Cc1cscn1)C(=O)O; NMeF = CN[C@@H](Cc1ccccc1)C(=O)O; NMeL = CN[C@@H](CC(C)C)C(=O)O; NMeA = CN[C@@H](C)C(=O)O; Piperidide = C1CCN(*)CC1; tBu = CC(C)(C)*
This listing pairs molecules with measured Papp.
Record the result as number plus unit.

Memo: CC[C@H](C)[C@@H]1NC(=O)[C@H](Cc2ccccc2)N(C)C(=O)[C@H]([C@@H](C)O)NC(=O)[C@@H](C)NC(=O)C[C@@H](C(=O)N(C)[C@@H](Cc2ccccc2)C(=O)N(C)[C@@H](Cc2ccccc2)C(=O)N[C@@H](C)C(=O)N2CCCCC2)NC(=O)[C@H](CC(C)C)N(C)C(=O)[C@H](CC(C)C)N(C)C(=O)[C@H](Cc2ccccc2)N(C)C(=O)[C@H](CC(C)C)N(C)C(=O)[C@H](C)N(C)C1=O [pd242] ([dA]T[NMeF]I[NMeA][NMeL][NMeF][NMeL][NMeL]D[NMeF][NMeF]A-Piperidide; lactam N-10) , reported Papp: 0.058 ×10⁻⁶ cm/s

Memo: CC(C)C[C@H]1C(=O)N[C@@H](COC(C)(C)C)C(=O)N[C@@H]([C@@H](C)O)C(=O)N(C)[C@@H](Cc2ccccc2)C(=O)N[C@H](C(=O)N2CCCCC2)CC(=O)N[C@@H](C)C(=O)N(C)[C@@H](Cc2ccccc2)C(=O)N(C)[C@@H](C)C(=O)N(C)[C@@H](Cc2ccccc2)C(=O)N(C)[C@@H](CC(C)C)C(=O)N[C@@H](Cc2ccccc2)C(=O)N1C [pd237] (A[NMeF][NMeA][NMeF][NMeL]F[NMeL]S(tBu)T[NMeF]D-Piperidide; lactam N-11) , reported Papp: 0.089 ×10⁻⁶ cm/s

Memo: CC(C)C[C@@H]1NC(=O)[C@H](CC(C)C)N(C)C(=O)[C@@H](C)NC(=O)C[C@@H](C(=O)N2CCCCC2)NC(=O)[C@H](Cc2ccccc2)N(C)C(=O)[C@H](Cc2ccccc2)N(C)C(=O)[C@H](C)N(C)C(=O)[C@H]([C@@H](C)O)NC(=O)[C@H](Cc2ccccc2)N(C)C(=O)[C@H](COC(C)(C)C)NC(=O)[C@H](Cc2ccccc2)N(C)C1=O [pd234] ([dA][NMeL]L[NMeF]S(tBu)[NMeF]T[NMeA][NMeF][NMeF]D-Piperidide; lactam N-11) , reported Papp: 0.15 ×10⁻⁶ cm/s

Memo: CC(C)C[C@@H]1NC(=O)[C@H](CC(C)C)N(C)C(=O)[C@H](CC(C)C)N(C)C(=O)CNC(=O)[C@H](Cc2ccccc2)N(C)C(=O)[C@H](Cc2cscn2)NC(=O)[C@H](CC(C)C)N(C)C(=O)[C@H](Cc2ccccc2)NC(=O)[C@H](C)NC(=O)C[C@@H](C(=O)N(C)[C@@H](Cc2ccccc2)C(=O)N[C@@H](C)C(=O)N2CCCCC2)NC1=O [pd235] (AF[NMeL][Ala(4-thiazolyl)][NMeF]G[NMeL][NMeL]LD[NMeF]A-Piperidide; lactam N-10) , reported Papp: 0.1 ×10⁻⁶ cm/s

Memo: CC(C)C[C@H]1C(=O)NCC(=O)N[C@H](C(=O)N(C)[C@@H](Cc2ccccc2)C(=O)N(C)[C@@H](Cc2ccccc2)C(=O)N[C@@H](C)C(=O)N2CCCCC2)CC(=O)N[C@@H](C)C(=O)N[C@@H]([C@@H](C)O)C(=O)N(C)[C@@H](C)C(=O)N(C)[C@@H](Cc2ccccc2)C(=O)N[C@@H](C(C)C)C(=O)N(C)[C@@H](Cc2ccccc2)C(=O)N1C [pd247] (AT[NMeA][NMeF]V[NMeF][NMeL]GD[NMeF][NMeF]A-Piperidide; lactam N-9) , reported Papp: 0.087 ×10⁻⁶ cm/s
